Each item that follows carries a reported MIC.
System: Cephalothinsensitive E. coli, Kl. pneumoniae and Pr. mirabilis
ASSAY EXPLANATION: MIC, two-fold serial agar dilution in Mueller-Hinton agar, group (G-)-Ia
Type: cell-based
MEASUREMENT CONDITIONS: (G-)-Ia, cephalothin-sensitive E. coli (2), Kl. pneumoniae (1), Pr. mirabilis (2 strains); read-out: Geometric Mean of MIC
Experimental: In the primary evaluation of the compounds of this invention, the Minimum Inhibitory Concentrations (MIC's) of the compounds were determined by the two-fold serial agar dilution method in Mueller-Hinton agar against 32 strains of test organisms in six groups. (G-)Ia: Cephalothinsensitive E. coli (2 strains), Kl. pneumoniae (1 strain) and Pr. mirabilis (2 strains)
READOUT NAME: MIC (µg/mL)

In [3]: df
Out[3]:
                                   compound    val
0  CO/N=C(\C(=O)NC1C(=O)N2C(C(=O)[O-])=C(C[n+]3csc(CCN)c3C)CSC12)c1csc(N)n1 (stereo not drawn)    0.8
1  CSc1scc[n+]1CC1=C(C(=O)[O-])N2C(=O)C(NC(=O)/C(=N\OC(C)(C)C(=O)O)c3csc(N)n3)[C@H]2SC1 (stereo partly drawn)  0.038
2  Cc1c(CCO)sc[n+]1CC1=C(C(=O)[O-])N2C(=O)C(NC(=O)/C(=N\OC(C)(C)C(=O)O)c3csc(N)n3)C2SC1 (stereo not drawn)  0.076
3  COc1sc[n+](CC2=C(C(=O)[O-])N3C(=O)C(NC(=O)/C(=N\OC(C)(C)C(=O)O)c4csc(N)n4)C3SC2)c1C (stereo not drawn)    0.1
4  CSc1scc(C)[n+]1CC1=C(C(=O)[O-])N2C(=O)C(NC(=O)/C(=N\OC(C)(C)C(=O)O)c3csc(N)n3)[C@H]2SC1 (stereo partly drawn)    0.1
5  CCO/N=C(\C(=O)NC1C(=O)N2C(C(=O)[O-])=C(C[n+]3ccsc3SC)CS[C@H]12)c1csc(N)n1 (stereo partly drawn)  0.076
